- tgt: Neuronal acetylcholine receptor; alpha4/beta2 (Homo sapiens, UniProt P17787+P43681)
- Sequence (P17787 whole entry): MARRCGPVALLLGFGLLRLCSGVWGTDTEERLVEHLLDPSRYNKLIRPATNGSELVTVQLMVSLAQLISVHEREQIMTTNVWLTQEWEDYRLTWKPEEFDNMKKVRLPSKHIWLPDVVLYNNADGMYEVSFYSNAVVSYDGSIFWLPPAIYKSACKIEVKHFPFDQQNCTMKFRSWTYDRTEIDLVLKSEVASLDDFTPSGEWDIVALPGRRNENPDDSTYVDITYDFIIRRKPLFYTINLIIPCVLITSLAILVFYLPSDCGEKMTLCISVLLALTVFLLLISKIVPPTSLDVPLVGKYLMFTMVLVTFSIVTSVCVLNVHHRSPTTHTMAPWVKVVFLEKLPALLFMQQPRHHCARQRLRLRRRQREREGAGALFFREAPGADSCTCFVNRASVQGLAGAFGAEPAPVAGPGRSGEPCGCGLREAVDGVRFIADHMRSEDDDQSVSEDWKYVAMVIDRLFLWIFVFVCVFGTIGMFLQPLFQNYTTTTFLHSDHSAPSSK
- Sequence (P43681 whole entry): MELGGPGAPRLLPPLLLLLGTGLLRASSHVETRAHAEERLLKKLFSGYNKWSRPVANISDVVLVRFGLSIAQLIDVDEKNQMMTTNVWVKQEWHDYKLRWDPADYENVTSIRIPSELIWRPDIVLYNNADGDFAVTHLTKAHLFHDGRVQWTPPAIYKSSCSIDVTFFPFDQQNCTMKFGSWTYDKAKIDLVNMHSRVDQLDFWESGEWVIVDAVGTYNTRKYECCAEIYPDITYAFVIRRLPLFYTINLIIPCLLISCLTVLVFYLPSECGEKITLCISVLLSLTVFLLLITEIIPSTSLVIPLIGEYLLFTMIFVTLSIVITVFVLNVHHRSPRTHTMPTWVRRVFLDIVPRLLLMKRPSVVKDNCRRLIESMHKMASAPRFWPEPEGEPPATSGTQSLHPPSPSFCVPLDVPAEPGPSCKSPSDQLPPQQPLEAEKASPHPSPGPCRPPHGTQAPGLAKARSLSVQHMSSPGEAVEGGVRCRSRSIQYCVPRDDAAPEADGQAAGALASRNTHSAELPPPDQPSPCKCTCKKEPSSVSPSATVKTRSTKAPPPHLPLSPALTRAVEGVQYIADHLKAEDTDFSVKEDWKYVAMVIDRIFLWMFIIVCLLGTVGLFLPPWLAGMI
- experimental_protocol: Inhibition of human alpha4beta2 nAChR by binding assay
readout_type: pIC50
Please express pIC50 as -log10 of the molar concentration.

## Task Under Neuronal acetylcholine receptor; alpha4/beta2 (Homo sapiens, UniProt P17787+P43681): pIC50 value of Cl.c1cncc(OC[C@H]2CNCCN2c2nc3ncccc3o2)c1 ?
## Result 7.24

----------
- tgt: Neuronal acetylcholine receptor subunit alpha-7 (Rattus norvegicus, UniProt Q05941)
- Sequence (Q05941 whole entry): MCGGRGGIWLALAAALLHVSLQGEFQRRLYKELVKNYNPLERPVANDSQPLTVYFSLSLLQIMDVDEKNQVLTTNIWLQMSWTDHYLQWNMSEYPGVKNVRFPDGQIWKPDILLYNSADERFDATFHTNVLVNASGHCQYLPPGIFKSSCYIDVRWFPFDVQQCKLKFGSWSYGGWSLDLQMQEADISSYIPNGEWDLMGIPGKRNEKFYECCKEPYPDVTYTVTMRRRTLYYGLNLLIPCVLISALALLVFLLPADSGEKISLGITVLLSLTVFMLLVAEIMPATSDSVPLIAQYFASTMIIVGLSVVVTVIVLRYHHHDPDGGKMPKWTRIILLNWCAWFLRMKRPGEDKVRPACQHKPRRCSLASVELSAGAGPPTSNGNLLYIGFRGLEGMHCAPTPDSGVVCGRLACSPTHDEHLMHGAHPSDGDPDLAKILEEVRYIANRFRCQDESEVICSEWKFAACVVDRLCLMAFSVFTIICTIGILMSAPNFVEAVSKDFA
- experimental_protocol: Inhibition of biotinylated alpha-bungarotoxin binding to alpha7 nAChR in rat PC12 cells by FACS analysis
readout_type: log10(IC50) (log10 of the value in nM)
Hey, these are logged values: log10 of IC50, nM being the unit before logging.

## Task Which value of log10(IC50) has been reported for O=C(c1ccc(Cl)cc1)N1CCNCC1COc1cccnc1 (racemic) in the records?
## Result 3.79

## Task Fill in the blank: the reported log10(IC50) of Clc1ccc2nc(N3CCNCC3COc3cccnc3)sc2c1 (racemic) is ____.
## Result 2.18

## Task What log10(IC50) value was documented for this compound, O=C(Cc1ccc(Cl)cc1)N1CCNCC1COc1cccnc1 (racemic) ?
## Result 2.04

## Task Could you tell me which log10(IC50) is on file for Brc1ccc2oc(N3CCNC[C@@H]3COc3cccnc3)nc2c1 ?
## Result 1.83

## Task Which log10(IC50) is reported for this compound? c1cncc(OC[C@@H]2CNCCN2c2nc3ncccc3o2)c1
## Result 3.20

## Task Can you share its log10(IC50)? I mean this compound: O=C(c1ccccc1)N1CCNCC1COc1cccnc1 (racemic)
## Result 3.03

## Task Value lookup for log10(IC50); key = COc1ccc2nc(N3CCNCC3COc3cccnc3)oc2c1 (racemic)
## Result 1.34

## Task log10(IC50) for Cc1ccc2nc(N3CCNCC3COc3cccnc3)sc2c1 (racemic) ?
## Result 1.93

## Task What does the record list as log10(IC50) for Cc1cc(NC(=O)N2CCNCC2COc2cccnc2)ccc1Br (racemic) ?
## Result 1.15
